The following molecules are shown together with reported IC50 values.
- Assayed Target: CDK1/cyclinB1 (Homo sapiens)
- Sequence (P06493 whole entry): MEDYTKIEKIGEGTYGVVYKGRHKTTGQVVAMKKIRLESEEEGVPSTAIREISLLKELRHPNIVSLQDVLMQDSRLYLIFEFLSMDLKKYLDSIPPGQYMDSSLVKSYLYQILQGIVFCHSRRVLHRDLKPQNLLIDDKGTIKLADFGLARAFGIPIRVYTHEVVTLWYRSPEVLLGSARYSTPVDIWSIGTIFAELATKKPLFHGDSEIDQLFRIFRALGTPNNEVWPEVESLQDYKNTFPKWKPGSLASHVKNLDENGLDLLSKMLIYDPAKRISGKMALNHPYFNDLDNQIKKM
- Sequence (P14635 whole entry partner): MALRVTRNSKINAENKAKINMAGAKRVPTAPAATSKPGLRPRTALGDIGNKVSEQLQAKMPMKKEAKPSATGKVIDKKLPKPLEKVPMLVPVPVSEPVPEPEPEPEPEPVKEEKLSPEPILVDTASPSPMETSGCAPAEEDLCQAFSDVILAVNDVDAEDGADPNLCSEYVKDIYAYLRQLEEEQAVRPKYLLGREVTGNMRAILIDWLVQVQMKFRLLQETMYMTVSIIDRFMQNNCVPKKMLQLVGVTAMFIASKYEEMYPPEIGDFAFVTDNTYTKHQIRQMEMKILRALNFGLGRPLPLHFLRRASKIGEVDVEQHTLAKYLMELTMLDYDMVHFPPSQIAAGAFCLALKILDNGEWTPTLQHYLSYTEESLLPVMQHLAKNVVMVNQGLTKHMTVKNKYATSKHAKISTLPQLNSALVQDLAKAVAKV
- Assay Remarks: Cyclin-dependent kinase activity assay (continuous ATP coupling assay), CDK1/cyclinB1
- Experimental Parameters: CDK1/cyclinB1 10 nM, ATP 200 μM, Histone1 copeptide 100 μM, 15 min preincubation, pH 7.5, 1% DMSO
- Method: Cyclin-dependent kinase activity assay was measured by continuous ATP coupling assay in which ADP generated by kinase catalyzed phosphorylation was converted back to ATP by consuming phosphoenolpyruvate (PEP) and NADH catalyzed by pyruvate kinase/lactate dehydrogenase (PK/LDH). […] For inhibition assay, compounds were first serial diluted in a 1:3 ratio from 10 μM to 0.05 nM using 10× reaction buffer. […] Data were analyzed using commercially available software Graphpad Prism. […]

I'd like to know its IC50. The molecule in question is CS(=O)(=O)N1CCC(Nc2ncc(C(F)(F)F)c(-n3cccn3)n2)CC1 [Example 19] ≥ 100 nM

Check CN1CCC(N2CCN(c3ccc(Nc4ncc(C(F)(F)F)c(-n5cccn5)n4)cc3)CC2)CC1 [Example 33] too. ≥ 100 nM

// same read-out, input: CC(CO)NS(=O)(=O)c1ccc(Nc2ncc(C(F)(F)F)c(-n3cccn3)n2)cc1 (stereo not drawn) [Example 133] 10 to 100 nM

Next entry: CNS(=O)(=O)c1ccc(Nc2ncc(C(F)(F)F)c(-n3cc(C[C@H](C)O)cn3)n2)cc1 (single isomer, unassigned) [Example 6] 10 to 100 nM

Then what about the molecule O=S(=O)(NCC1(CO)CC1)c1ccc(Nc2ncc(C(F)(F)F)c(-n3cccn3)n2)cc1 [Example 132] ? ≥ 100 nM
